src = patent US11001561B2

The following molecules are shown together with reported IC50 values.
measuredOn: auto-activated mutant protein SHP2 E76K (Homo sapiens (Human), UniProt Q06124, E76K)
Sequence (Q06124 whole entry E76K): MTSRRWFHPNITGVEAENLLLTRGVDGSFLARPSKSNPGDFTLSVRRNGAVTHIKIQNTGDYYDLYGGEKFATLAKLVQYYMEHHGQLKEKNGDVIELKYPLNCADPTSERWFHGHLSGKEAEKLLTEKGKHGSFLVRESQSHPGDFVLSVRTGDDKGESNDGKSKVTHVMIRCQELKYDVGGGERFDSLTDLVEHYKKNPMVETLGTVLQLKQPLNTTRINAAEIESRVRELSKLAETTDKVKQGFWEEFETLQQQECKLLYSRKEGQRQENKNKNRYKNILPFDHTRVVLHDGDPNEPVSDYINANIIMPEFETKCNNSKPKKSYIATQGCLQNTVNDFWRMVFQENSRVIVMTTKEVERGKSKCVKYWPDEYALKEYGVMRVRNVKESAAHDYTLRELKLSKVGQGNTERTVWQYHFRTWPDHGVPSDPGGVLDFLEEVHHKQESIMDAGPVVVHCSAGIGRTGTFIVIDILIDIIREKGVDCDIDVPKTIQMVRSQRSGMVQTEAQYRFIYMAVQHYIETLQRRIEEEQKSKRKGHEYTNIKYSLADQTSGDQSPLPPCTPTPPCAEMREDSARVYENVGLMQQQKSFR
protocolSummary: SHP2 active mutant E76K biochemical assay with and without activating peptide
protocolConditions: without activating peptide, read-out: SHP-2 E76Z IC50 (nM) No peptide
State the answer as a number, implicitly in nM.

molecule	observed
Cc1c(N2CCC3(CC2)Cc2ncccc2[C@H]3N)nc(C)n(-c2cccc(Cl)c2Cl)c1=O (single isomer, unassigned) [Compound 66a]	97

Please turn your attention to the following entry.
Data request, read-out IC50, for [2H]C([2H])([2H])c1c(N2CCC3(CC2)Cc2ccccc2[C@H]3N)nc(C)n(-c2cccc(Cl)c2Cl)c1=O [Compound 106]
3.5

----------
measuredOn: Full length SHP2 protein (Recombinant Human SHP-2) (Homo sapiens (Human), UniProt Q06124)
Sequence (Q06124 2-593): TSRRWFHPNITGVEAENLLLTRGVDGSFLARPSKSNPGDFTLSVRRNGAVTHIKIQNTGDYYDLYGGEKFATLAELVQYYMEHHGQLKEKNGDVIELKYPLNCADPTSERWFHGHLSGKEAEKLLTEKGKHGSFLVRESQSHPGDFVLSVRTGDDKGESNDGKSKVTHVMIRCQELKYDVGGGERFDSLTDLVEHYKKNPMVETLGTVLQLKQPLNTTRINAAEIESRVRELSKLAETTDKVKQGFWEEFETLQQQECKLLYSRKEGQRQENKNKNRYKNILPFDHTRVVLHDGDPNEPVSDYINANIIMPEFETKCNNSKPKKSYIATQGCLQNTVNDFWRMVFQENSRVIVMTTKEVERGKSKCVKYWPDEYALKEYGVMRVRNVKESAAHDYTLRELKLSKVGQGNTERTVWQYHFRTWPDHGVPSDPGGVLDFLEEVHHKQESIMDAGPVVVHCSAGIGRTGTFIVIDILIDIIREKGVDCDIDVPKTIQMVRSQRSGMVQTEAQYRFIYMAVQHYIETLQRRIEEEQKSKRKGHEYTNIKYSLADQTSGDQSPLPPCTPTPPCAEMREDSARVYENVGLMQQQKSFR
protocolSummary: SHP2 biochemical assay (DiFMUP substrate, activating peptide IRSI_2pY)
protocolConditions: activating peptide IRSI_2pY 140 nM, DiFMUP, 60 min; read-out: SHP-2 biochemical assay IC50
The following molecules are shown together with reported IC50 values.

As a guide, the following entries are already answered.
molecule	measuredEndpoint	observed
Cc1c(N2CCC(C)(CN)CC2)nc(C)n(-c2ccc3nccnc3c2)c1=O	IC50	> 10000 nM
Cc1c(N2CCC3(CC2)C[C@H](C)C[C@H]3N)nc(C)n(-c2cccc(Cl)c2Cl)c1=O (atropisomer, axis not shown) [Compound 111a]	IC50	93 nM

Data request, read-out IC50, for Cc1nc(N2CCC(C)(NCC3CCC(O)CC3)CC2)cc(=O)n1-c1cccc(Cl)c1Cl (stereo not shown)
560 nM

Data request, read-out IC50, for C[C@@H]1OCC2(CCN(c3cc(=O)n(-c4cccc(Cl)c4Cl)c(N)n3)CC2)[C@@H]1N
760 nM

Data request, read-out IC50, for Cc1c(N2CCC3(CC2)CO[C@@H](C)[C@H]3N)nc(C)n(-c2ccc3ccccc3c2Cl)c1=O
590 nM

Data request, read-out IC50, for COc1c(N2CCC3(CC2)CO[C@@H](C)[C@H]3N)nc(C)n(-c2cccc(Cl)c2Cl)c1=O (single isomer, unassigned) [Compound 73a]
> 10000 nM

Data request, read-out IC50, for Cc1nc(N2CCC(C)(N)CC2)c(Cl)c(=O)n1-c1cccc(Cl)c1Cl
1100 nM

Data request, read-out IC50, for Cc1nc(N2CC3CC4CC(C4(C)C)C3(CN)C2)cc(=O)n1-c1cccc(Cl)c1Cl (stereo not shown)
10000 nM

Data request, read-out IC50, for Cc1ccc(Cl)c(Cl)c1-n1c(C)nc(N2CCC3(CC2)CO[C@@H](C)[C@H]3N)c(C)c1=O
7300 nM

Data request, read-out IC50, for Cc1c(N2CCC(C)(CN)CC2)nc(N)n(-c2cccc(Cl)c2Cl)c1=O
1400 nM

Data request, read-out IC50, for Cc1c(N2CCc3cc(N)ccc3C2)nc(C)n(-c2cccc(Cl)c2Cl)c1=O
> 10000 nM

Data request, read-out IC50, for Cc1nc(N2CCC(O)(CN)CC2)cc(=O)n1-c1cccc(Cl)c1Cl
3500 nM

Data request, read-out IC50, for Cc1c(N2CCC3(CC2)CO[C@@H](C)[C@H]3N)nc(C)n(-c2ccc3ccccc3c2)c1=O
1200 nM

Data request, read-out IC50, for Cc1c(N2CCN3CC(N)CC3C2)nc(C)n(-c2cccc(Cl)c2Cl)c1=O (stereo not shown)
5800 nM

Data request, read-out IC50, for Cc1c(F)ccc(-n2c(C)nc(N3CCC4(CC3)Cc3ccccc3[C@H]4N)c(C)c2=O)c1Cl
2 nM

Data request, read-out IC50, for Cc1nc(N2CCC(N)(C(N)=O)CC2)cc(=O)n1-c1cccc(Cl)c1Cl
2100 nM
